molecular target: Porcine pancreatic phospholipase A2 (Sus scrofa); construct: purchased Boehringer Mannheim·Yamanouchi K.K. 161454·122416; test: Phospholipase A2 inhibitory activity, method A (egg yolk lecithin substrate); type: biochemical; details: 1,000 ppm, 37°C for 30 minutes, read-out: % inhibition of PLA2 (1,000 ppm)
Label true (1) when inhibition at 1000 ppm >= 50%; otherwise false (0).

smiles.input: CS(=O)(=O)Nc1ncc(C(F)(F)F)cc1NC(=O)C(F)(F)F
target.under.test: Porcine pancreatic phospholipase A2 (Sus scrofa)
label: true (1)

stdin: Dear colleague, could you confirm whether "CS(=O)(=O)Nc1ncc(C(F)(F)F)cc1NC(=O)C(F)(F)C(F)(F)F" has inhibition at 1000 ppm at or above 50%?
stdout: true (1)

stdin: Dear colleague, could you confirm whether "CCS(=O)(=O)Nc1ncc(C(F)(F)F)cc1NC(=O)C(F)(F)Cl" has inhibition at 1000 ppm at or above 50%?
stdout: true (1)

stdin: Dear colleague, could you confirm whether "CS(=O)(=O)Nc1ncc(C(F)(F)F)cc1NC(=O)C(F)(F)C(F)(F)C(F)(F)F" has inhibition at 1000 ppm at or above 50%?
stdout: true (1)

---

molecular target: Porcine pancreatic phospholipase A2 (Sus scrofa, UniProt P00592); construct: purchased Boehringer Mannheim·Yamanouchi K.K. 161454·122416; test: Phospholipase A2 inhibitory activity, method A (egg yolk lecithin substrate); assay type: biochemical; settings: 1,000 ppm, 37°C for 30 minutes, read-out: % inhibition of PLA2 (1,000 ppm)
Sequence (P00592 23-146): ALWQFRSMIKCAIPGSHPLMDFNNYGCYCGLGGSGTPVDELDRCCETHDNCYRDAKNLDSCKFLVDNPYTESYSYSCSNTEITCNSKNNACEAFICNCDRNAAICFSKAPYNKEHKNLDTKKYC
observed.property: inhibition at 1000 ppm

smiles.input: C/C=C/C(=O)Nc1cc(C(F)(F)F)cnc1NS(C)(=O)=O
recorded.value: 49%

smiles.input: CCCCCCCCS(=O)(=O)Nc1ncc(C(F)(F)F)cc1NC(=O)C(F)(F)C(F)(F)F
recorded.value: 37%

smiles.input: O=C(NNc1ncc(C(F)(F)F)cc1NC(=O)C(F)(F)C(F)(F)F)c1ccccc1
recorded.value: 41%

smiles.input: CCCS(=O)(=O)Nc1ncc(C(F)(F)F)cc1NC(=O)C(F)(F)C(F)(F)F
recorded.value: 74%

smiles.input: CCCC(=O)Nc1cc(C(F)(F)F)cnc1NS(C)(=O)=O
recorded.value: 45%

Items follow; give inhibition at 1000 ppm for each.
1. CS(=O)(=O)Nc1ncc(C(F)(F)F)cc1NC(=O)CCCCCl
2. CS(=O)(=O)Nc1ncc(C(F)(F)F)cc1NC(=O)c1ccc(F)cc1
3. C=CC(=O)Nc1cc(C(F)(F)F)cnc1NS(=O)(=O)CC
4. CCCCCCCCC(=O)Nc1cc(C(F)(F)F)cnc1NS(C)(=O)=O
5. O=C(Nc1ncc(C(F)(F)F)cc1NC(=O)C(F)(F)F)C(Cl)Cl
6. C=CC(=O)Nc1cc(C(F)(F)F)cnc1NS(C)(=O)=O
7. CCCCCCCCCCCC(=O)Nc1cc(C(F)(F)F)cnc1NS(C)(=O)=O

stdout:
1: 47%; 2: 60%; 3: 30%; 4: 74%; 5: 62%; 6: 71%; 7: 39%

Items follow; give inhibition at 1000 ppm for each.
1. CCOC(=O)NC(=S)Nc1cc(C(F)(F)F)cnc1NS(=O)(=O)CC
2. CCOC(=O)NC(=S)Nc1cc(C(F)(F)F)cnc1NC
3. CCOC(=O)Nc1cc(C(F)(F)F)cnc1NS(C)(=O)=O
4. CCS(=O)(=O)Nc1ncc(C(F)(F)F)cc1NC(=O)C(F)(F)C(F)(F)F
5. O=C(Nc1cc(C(F)(F)F)cnc1NC(=O)C(F)(F)C(F)(F)F)c1ccccc1
6. CCOCCC(=O)Nc1cc(C(F)(F)F)cnc1NC(=O)CCOCC
7. CNc1ncc(C(F)(F)F)cc1NC(=O)C(F)(F)C(F)(F)F

stdout:
1. 62%
2. 37%
3. 62%
4. > 90%
5. 50%
6. 35%
7. 89%

# inhibition at 1000 ppm of "CC(C)S(=O)(=O)Nc1ncc(C(F)(F)F)cc1NC(=O)C(F)(F)C(F)(F)F" = 63%
